Exercise: for every item that follows, state its recorded DC50.
biological target: SMARCA2 (Homo sapiens); assay: HiBiT assay for protein degradation, Hela SMARCA2-HiBiT cells (A series); assay type: cell-based; design: Hela cells were genetically modified via CRISPR/Cas9 to fuse HiBiT to the carboxy terminus of SMARCA2; host or cells: HeLa (CRISPR/Cas9 HiBiT knock-in); details: Hela SMARCA2-HiBiT cells, 24 hours treatment; read-out: SMARC A2 Hela HiBit DC50
Sequence (P51531 whole entry): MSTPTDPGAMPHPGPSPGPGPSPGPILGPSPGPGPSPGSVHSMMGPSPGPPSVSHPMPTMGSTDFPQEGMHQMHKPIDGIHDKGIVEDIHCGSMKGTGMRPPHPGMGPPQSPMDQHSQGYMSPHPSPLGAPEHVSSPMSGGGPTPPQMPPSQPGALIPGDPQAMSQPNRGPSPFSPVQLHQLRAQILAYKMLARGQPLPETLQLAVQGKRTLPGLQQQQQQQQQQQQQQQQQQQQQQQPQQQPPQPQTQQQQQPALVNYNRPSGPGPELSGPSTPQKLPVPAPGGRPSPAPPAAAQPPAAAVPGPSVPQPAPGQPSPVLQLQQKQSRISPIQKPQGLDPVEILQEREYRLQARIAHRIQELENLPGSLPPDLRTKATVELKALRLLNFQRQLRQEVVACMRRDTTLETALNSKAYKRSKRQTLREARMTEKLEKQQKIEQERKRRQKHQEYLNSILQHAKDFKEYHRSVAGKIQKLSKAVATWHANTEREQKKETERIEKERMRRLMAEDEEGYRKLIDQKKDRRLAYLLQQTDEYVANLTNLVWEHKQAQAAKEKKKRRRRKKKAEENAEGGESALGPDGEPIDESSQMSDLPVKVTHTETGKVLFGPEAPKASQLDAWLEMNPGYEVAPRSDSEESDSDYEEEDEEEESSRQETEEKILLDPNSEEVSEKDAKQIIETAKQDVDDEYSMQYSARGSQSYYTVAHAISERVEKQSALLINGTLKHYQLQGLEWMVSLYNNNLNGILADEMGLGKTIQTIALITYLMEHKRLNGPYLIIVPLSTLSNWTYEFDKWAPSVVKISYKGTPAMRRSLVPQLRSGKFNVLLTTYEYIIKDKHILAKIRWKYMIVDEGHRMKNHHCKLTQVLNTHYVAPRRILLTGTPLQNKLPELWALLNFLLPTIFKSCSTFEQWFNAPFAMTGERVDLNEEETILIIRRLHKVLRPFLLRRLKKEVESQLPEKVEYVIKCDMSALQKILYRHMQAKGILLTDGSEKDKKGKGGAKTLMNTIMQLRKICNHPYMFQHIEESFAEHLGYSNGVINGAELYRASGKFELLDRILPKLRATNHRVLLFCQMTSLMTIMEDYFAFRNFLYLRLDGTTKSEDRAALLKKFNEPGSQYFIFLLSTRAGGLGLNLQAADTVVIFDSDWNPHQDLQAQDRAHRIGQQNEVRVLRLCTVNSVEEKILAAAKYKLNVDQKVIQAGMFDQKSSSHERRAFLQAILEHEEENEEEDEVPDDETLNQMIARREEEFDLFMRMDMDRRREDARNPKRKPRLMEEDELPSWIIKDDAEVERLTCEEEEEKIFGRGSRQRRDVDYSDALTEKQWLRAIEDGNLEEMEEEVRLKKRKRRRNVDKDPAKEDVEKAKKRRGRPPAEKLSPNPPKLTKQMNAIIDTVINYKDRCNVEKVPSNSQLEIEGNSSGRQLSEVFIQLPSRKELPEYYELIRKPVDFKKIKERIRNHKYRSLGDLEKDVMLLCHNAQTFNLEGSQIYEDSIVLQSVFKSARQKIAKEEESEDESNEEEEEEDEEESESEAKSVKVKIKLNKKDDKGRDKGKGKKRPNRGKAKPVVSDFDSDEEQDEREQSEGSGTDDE

{"SMILES STRING": "Cc1ncsc1-c1ccc([C@H](C)NC(=O)[C@@H]2C[C@@H](O)CN2C(=O)[C@@H](NC(=O)[C@H]2CC[C@H](CN3CCC(N4CCC(c5ccc6c(c5)C5(CCCCC5)c5nc(=O)c7c(Cl)cccc7n5-6)CC4)CC3)CC2)C(C)(C)C)cc1", "MEASURED VALUE": "< 0.1 µM"}

Batch lookup, DC50 per entry.
1. Cc1ncsc1-c1ccc([C@H](C)NC(=O)[C@@H]2C[C@@H](O)CN2C(=O)[C@H](C2CCN(C3CCOCC3)CC2)n2cc([C@H]3CC[C@H](CN4CCC(c5ccc6c(c5)-n5c(nc(=O)c7c(Cl)cccc75)C65CCCCC5)CC4)CC3)nn2)cc1
2. Cc1ncsc1-c1ccc([C@H](C)NC(=O)[C@@H]2C[C@@H](O)CN2C(=O)[C@H](C2CCN(C)CC2)n2cc([C@H]3CC[C@H](CN4CCC(c5ccc6c(c5)-n5c(nc(=O)c7c(Cl)cccc75)C65CCCCC5)CC4)CC3)nn2)cc1
3. CC(C)(C)[C@@H](C(=O)N1C[C@H](O)C[C@H]1C(=O)N[C@@H](CN1CCOCC1)c1ccc(-c2cccnc2)cc1)n1cc([C@H]2CC[C@H](CN3CCC(c4ccc5c(c4)-n4c(nc(=O)c6c(Cl)cccc64)C54CCCCC4)CC3)CC2)nn1

### Response
< 0.01 µM
0.01 to 0.1 µM
< 0.01 µM

----------
target: SMARCA4 (Homo sapiens, UniProt P51532); test: HiBit assay in engineered HT1080 CRISPR knock-in cell, 6 hrs (B series), SMARCA4; format: cell-based; conditions: HT1080 CRISPR knock-in cells, 6 hrs incubation; read-out: SMARC A4 HT1080 HiBit DC50
Sequence (P51532 whole entry): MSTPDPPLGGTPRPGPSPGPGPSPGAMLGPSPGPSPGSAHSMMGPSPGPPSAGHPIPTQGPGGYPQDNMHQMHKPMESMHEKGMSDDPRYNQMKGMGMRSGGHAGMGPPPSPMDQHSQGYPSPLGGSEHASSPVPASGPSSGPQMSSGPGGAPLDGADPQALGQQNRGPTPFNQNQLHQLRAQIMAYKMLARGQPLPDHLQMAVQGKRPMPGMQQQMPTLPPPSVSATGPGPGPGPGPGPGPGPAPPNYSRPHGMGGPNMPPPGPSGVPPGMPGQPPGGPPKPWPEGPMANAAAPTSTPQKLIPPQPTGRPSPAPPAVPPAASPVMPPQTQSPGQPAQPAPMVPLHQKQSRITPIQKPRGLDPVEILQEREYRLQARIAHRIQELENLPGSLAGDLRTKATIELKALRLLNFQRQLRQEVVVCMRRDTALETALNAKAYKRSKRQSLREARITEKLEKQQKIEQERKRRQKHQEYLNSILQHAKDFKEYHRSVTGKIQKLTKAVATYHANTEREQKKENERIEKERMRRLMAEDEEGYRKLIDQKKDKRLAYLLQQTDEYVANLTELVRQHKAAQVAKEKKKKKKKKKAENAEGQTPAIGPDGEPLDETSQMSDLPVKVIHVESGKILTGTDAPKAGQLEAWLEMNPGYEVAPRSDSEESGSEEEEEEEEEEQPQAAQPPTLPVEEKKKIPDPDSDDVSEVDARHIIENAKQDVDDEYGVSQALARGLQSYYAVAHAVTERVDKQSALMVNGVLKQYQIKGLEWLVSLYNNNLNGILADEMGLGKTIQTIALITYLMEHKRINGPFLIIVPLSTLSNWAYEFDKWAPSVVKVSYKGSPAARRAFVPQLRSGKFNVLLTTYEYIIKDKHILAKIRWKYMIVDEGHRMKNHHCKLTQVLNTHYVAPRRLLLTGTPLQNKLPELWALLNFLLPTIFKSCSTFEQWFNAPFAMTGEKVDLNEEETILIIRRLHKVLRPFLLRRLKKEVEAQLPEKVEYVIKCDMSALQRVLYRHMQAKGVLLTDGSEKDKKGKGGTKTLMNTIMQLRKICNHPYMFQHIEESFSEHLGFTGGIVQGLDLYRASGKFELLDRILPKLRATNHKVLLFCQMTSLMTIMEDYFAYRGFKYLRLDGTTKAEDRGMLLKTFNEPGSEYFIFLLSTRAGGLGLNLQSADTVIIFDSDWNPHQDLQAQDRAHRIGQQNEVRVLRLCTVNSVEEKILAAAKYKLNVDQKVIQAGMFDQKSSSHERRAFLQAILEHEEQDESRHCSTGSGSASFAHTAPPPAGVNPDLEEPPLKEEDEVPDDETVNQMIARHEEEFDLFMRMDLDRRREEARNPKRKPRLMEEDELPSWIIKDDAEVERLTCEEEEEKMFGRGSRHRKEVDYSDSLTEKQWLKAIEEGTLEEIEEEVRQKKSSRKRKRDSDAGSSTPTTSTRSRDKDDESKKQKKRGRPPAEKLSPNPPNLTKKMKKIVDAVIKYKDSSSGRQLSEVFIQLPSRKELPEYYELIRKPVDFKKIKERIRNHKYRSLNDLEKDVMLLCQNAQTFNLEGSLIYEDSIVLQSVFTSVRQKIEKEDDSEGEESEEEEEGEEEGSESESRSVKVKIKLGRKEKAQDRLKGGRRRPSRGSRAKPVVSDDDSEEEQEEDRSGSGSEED
Exercise: for every item that follows, state its recorded DC50.

Study these solved cases before continuing.
{"COMPOUND": "Cc1cc(C(C(=O)N2C[C@H](O)C[C@H]2C(=O)N[C@@H](CCCCCN2CCC(c3ccc4c(c3)-n3c(nc(=O)c5c(Cl)cccc53)C4(C)C)CC2)c2ccc(-c3scnc3C)cc2)C(C)C)on1 (some centres unmarked) [Compound B84]", "ENDPOINT NAME": "DC50", "MEASURED VALUE": "< 100 nM"}
{"COMPOUND": "Cc1ncsc1-c1ccc([C@H](C)NC(=O)[C@@H]2C[C@@H](O)CN2C(=O)[C@@H](c2cc(OCCCCN3CCC(c4ccc5c(c4)C(C)(C)c4nc(=O)c6c(Cl)cccc6n4-5)CC3)no2)C(C)C)cc1 [Compound B12]", "ENDPOINT NAME": "DC50", "MEASURED VALUE": "< 100 nM"}
{"COMPOUND": "Cc1ncsc1-c1ccc([C@H](C)NC(=O)[C@@H]2C[C@@H](O)CN2C(=O)[C@@H](NC(=O)[C@H]2CC[C@H](CN3CCC(c4ccc5c(c4)C(C)(C)c4nc(=O)c6c(Cl)cccc6n4-5)CC3)CC2)C(C)(C)C)cc1 [Compound B1]", "ENDPOINT NAME": "DC50", "MEASURED VALUE": "< 100 nM"}
{"COMPOUND": "Cc1ncsc1-c1ccc([C@H](C)NC(=O)[C@@H]2C[C@@H](O)CN2C(=O)C(c2cc(CN3CCC(c4ccc5c(c4)-n4c(nc(=O)c6c(Cl)cccc64)C5(C)C)CC3)no2)C(C)C)cc1 (some centres unmarked) [Compound B62]", "ENDPOINT NAME": "DC50", "MEASURED VALUE": "> 1000 nM"}

Batch lookup, DC50 per entry.
1. Cc1nc(C)c(-c2ccc([C@H](C)NC(=O)[C@@H]3C[C@@H](O)CN3C(=O)[C@@H](n3cc([C@H]4CC[C@H](CN5CCN(c6ccc7c(c6)-n6c(nc(=O)c8c(Cl)cccc86)C76CCCCC6)CC5)CC4)nn3)C(C)(C)C)cc2)s1 [Compound B168]
2. Cc1ncsc1-c1ccc([C@H](C)NC(=O)[C@@H]2C[C@@H](O)CN2C(=O)[C@@H](c2cc(OC3CCC(N4CCC(c5ccc6c(c5)-n5c(nc(=O)c7c(Cl)cccc75)C6(C)C)CC4)CC3)no2)C(C)C)cc1 (some centres unmarked) [Compound B81]
3. Cc1ncsc1-c1ccc([C@H](C)NC(=O)[C@@H]2C[C@@H](O)CN2C(=O)[C@@H](c2cc(OCC3CCC(N4CCC(c5cccc6c5C(C)(C)c5nc(=O)c7c(Cl)cccc7n5-6)CC4)CC3)no2)C(C)C)cc1 (some centres unmarked) [Compound B100]
4. Cc1ncsc1-c1ccc([C@H](C)NC(=O)[C@@H]2C[C@@H](O)CN2C(=O)[C@H](C(C)C)n2cc(C3CCC(c4cccc5c4C(C)(C)c4nc(=O)c6c(Cl)cccc6n4-5)CC3)nn2)cc1 (some centres unmarked) [Compound B162]

### Response
1. 100 to 500 nM
2. < 100 nM
3. < 100 nM
4. < 100 nM

Batch lookup, DC50 per entry.
1. C[C@H](NC(=O)[C@@H]1C[C@@H](O)CN1C(=O)[C@@H](n1cc([C@H]2CC[C@H](CN3CCN(c4ccc5c(c4)-n4c(nc(=O)c6c(Cl)cccc64)C5(C)C)CC3)CC2)nn1)C(C)(C)C)c1ccc(-c2ccn[nH]2)cc1 [Compound B127]
2. Cc1ncsc1-c1ccc(C(CN2CCOCC2)NC(=O)[C@@H]2C[C@@H](O)CN2C(=O)[C@@H](c2cc(O[C@H]3CC[C@H](CN4CCN(c5ccc6c(c5)-n5c(nc(=O)c7c(Cl)cccc75)C6(C)C)CC4)CC3)no2)C(C)C)cc1 (some centres unmarked) [Compound B163]
3. Cc1ncsc1-c1ccc([C@H](C)NC(=O)[C@@H]2C[C@@H](O)CN2C(=O)[C@H](C(C)C)n2cc(CN3CCC(c4ccc5c(c4)C(C)(C)c4nc(=O)c6c(Cl)cccc6n4-5)CC3)nn2)cc1 [Compound B29]
4. Cc1ncsc1-c1ccc2c(NC(=O)[C@@H]3C[C@@H](O)CN3C(=O)[C@@H](n3cc([C@H]4CC[C@H](CN5CCC(c6ccc7c(c6)-n6c(nc(=O)c8c(Cl)cccc86)C7(C)C)CC5)CC4)nn3)C(C)(C)C)n[nH]c2c1 [Compound B148]

### Response
1: < 100 nM; 2: < 100 nM; 3: < 100 nM; 4: < 100 nM

Batch lookup, DC50 per entry.
1. Cc1ncsc1-c1ccc([C@H](C)NC(=O)[C@@H]2C[C@@H](O)CN2C(=O)[C@H](C(C)C)n2cc([C@H]3CC[C@H](CN4CCC(c5ccc6c(c5)-n5c(nc(=O)c7c(Cl)cccc75)C6(C)C)CC4)CC3)nn2)cc1 [Compound B41]
2. Cc1cc(C(C(=O)N2C[C@H](O)C[C@H]2C(=O)N[C@@H](C)c2ccc(-c3scnc3C#CCOCCOCCN3CCC(c4ccc5c(c4)-n4c(nc(=O)c6c(Cl)cccc64)C5(C)C)CC3)cc2)C(C)C)on1 (some centres unmarked) [Compound B104]

### Response
1. < 100 nM
2. 100 to 500 nM

Batch lookup, DC50 per entry.
1. C#Cc1ccc([C@H](CN2CCOCC2)NC(=O)[C@@H]2C[C@@H](O)CN2C(=O)[C@@H](n2cc([C@H]3CC[C@H](CN4CCC(c5ccc6c(c5)-n5c(nc(=O)c7c(Cl)cccc75)C6(C)C)CC4)CC3)nn2)C(C)(C)C)cc1 [Compound B102]
2. Cc1ncsc1-c1ccc2c(c1)CCC[C@@H]2NC(=O)[C@@H]1C[C@@H](O)CN1C(=O)[C@@H](n1cc([C@H]2CC[C@H](CN3CCC(c4ccc5c(c4)-n4c(nc(=O)c6c(Cl)cccc64)C5(C)C)CC3)CC2)nn1)C(C)(C)C [Compound B146]
3. Cc1ncsc1-c1ccc([C@H](C)NC(=O)[C@@H]2C[C@@H](O)CN2C(=O)[C@H](C(C)C)n2cc([C@H]3CC[C@H](CN4CCN(c5ccc6c(c5)-n5c(nc(=O)c7c(Cl)cccc75)C6(C)C)CC4)CC3)nn2)cc1 [Compound B120]

### Response
< 100 nM
100 to 500 nM
< 100 nM
